Experiment: qHTS Assay for inhibitors of the human cytomegalovirus (HCMV); also: % is scaled to controls: 0 for no effect and ±100 for the full control effect
Conditions: HFF cells, HCMV-luciferase reporter, 72 h; at 57.5 µM; stronger effect = lower value
The whole screen tested about 410,000 compounds, of which about 18,000 (4.4%) were called active. About 7% were inconclusive and are not listed. The sample as a whole holds a higher share of actives than the screen did.
Would you mind telling me the reported activity change, negative = inhibition of each entry?

QUERY: Output measured activity change, negative = inhibition for this item: COc1ccc(Cn2ccn(CC(=O)Nc3cc(C)ccc3C)c(=O)c2=O)cc1
RESULT: 15.8% (inactive)

QUERY: Output measured activity change, negative = inhibition for this item: CN1CCN(C(=O)CCc2ncc(C(F)(F)F)cc2Cl)CC1
RESULT: -28.5% (inactive)

QUERY: Output measured activity change, negative = inhibition for this item: Cc1oc2c(c1C(=O)N1CCOCC1)C(=O)c1ccccc1C2=O
RESULT: -101% (active)

QUERY: Output measured activity change, negative = inhibition for this item: COc1ccc(C(=O)NCC(c2ccco2)N2CCc3ccccc32)cc1OC (stereo not given)
RESULT: -5.62% (inactive)

QUERY: Output measured activity change, negative = inhibition for this item: CC(=O)c1ccc(NC(=O)CCNS(=O)(=O)c2cc(Br)cnc2N)cc1
RESULT: 31.8% (inactive)

QUERY: Output measured activity change, negative = inhibition for this item: O=C1Cc2cc(S(=O)(=O)Nc3ccc(OC(F)(F)F)cc3)cc3c2N1CCC3
RESULT: 14.6% (inactive)

QUERY: Output measured activity change, negative = inhibition for this item: COc1ccc(C(F)(F)F)cc1N/C=C\c1nnnn1-c1ccc(C)cc1
RESULT: 34.7% (inactive)

QUERY: Output measured activity change, negative = inhibition for this item: COc1ccc(Cl)cc1NC(=O)CCn1c(=O)c2cccn2c2ccccc21
RESULT: 4.3% (inactive)

QUERY: Output measured activity change, negative = inhibition for this item: Cc1ccsc1/C=N/NC(=O)Cc1cc(=O)[nH][nH]1
RESULT: 80.6% (inactive)

QUERY: Output measured activity change, negative = inhibition for this item: Cc1ccc(C)c(CN2C(=O)c3ccccc3S(=O)c3ccc(C(=O)N4CCOCC4)cc32)c1 (stereo not given)
RESULT: 9.82% (inactive)
